Biological target: 5-hydroxytryptamine receptor 6 (Homo sapiens)
Sequence (P50406 whole entry): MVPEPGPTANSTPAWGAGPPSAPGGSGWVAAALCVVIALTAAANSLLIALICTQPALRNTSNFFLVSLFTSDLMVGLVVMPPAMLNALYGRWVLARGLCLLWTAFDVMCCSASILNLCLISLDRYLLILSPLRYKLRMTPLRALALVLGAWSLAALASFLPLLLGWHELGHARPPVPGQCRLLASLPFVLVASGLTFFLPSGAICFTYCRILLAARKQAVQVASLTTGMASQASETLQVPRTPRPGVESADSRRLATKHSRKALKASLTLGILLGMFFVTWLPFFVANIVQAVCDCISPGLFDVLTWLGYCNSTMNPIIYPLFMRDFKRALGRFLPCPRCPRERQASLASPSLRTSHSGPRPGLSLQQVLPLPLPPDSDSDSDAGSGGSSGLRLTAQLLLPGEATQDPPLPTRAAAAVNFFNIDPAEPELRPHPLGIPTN
Assay: Displacement of [3H]LSD from human 5-HT6 receptor expressed in human HeLa cells after 1 hr by scintillation spectroscopic analysis
Assay type: cell-based
Conditions: read-out: Ki
pKi: −log10 of the molar value.
measured.parameter: pKi

>  <smiles.notation>
CN1C[C@@H](NS(=O)(=O)N(C)C)C[C@@H]2c3cccc4c3c(cn4C)C[C@H]21

>  <reported.result>
6.11

$$$$

---

Attribute: Ki
Target: D(2) dopamine receptor (Homo sapiens, UniProt P14416)
Sequence (P14416 whole entry): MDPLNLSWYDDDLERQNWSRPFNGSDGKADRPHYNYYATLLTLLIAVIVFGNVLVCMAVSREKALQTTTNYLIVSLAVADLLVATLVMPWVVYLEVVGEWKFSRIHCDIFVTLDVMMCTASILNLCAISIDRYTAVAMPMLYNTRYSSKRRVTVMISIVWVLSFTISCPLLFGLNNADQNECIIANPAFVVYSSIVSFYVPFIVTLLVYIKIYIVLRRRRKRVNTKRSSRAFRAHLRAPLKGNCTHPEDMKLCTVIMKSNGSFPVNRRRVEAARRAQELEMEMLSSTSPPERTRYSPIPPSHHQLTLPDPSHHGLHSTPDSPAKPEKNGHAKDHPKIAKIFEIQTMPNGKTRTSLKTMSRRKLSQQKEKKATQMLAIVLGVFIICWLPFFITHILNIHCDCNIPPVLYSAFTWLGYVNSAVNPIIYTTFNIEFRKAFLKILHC
Assay: Displacement of [3H]raclopride from human dopamine D2L receptor expressed in CHOK1a cell membrane after 180 mins by scintillation counting analysis
Assay type: cell membranes
Settings: read-out: Ki

>  <molecule>
c1ccc(-c2ccc(CN3CCN4c5cccc6[nH]cc(c56)CC4C3)cc2)cc1 (stereo not drawn)

>  <Ki>
0.14 µM

$$$$
>  <molecule>
CCCCCN1CCN2c3cccc4[nH]cc(c34)CC2C1 (stereo not drawn)

>  <Ki>
0.098 µM

$$$$
>  <molecule>
CC(C)CCN1CCN2c3cccc4[nH]cc(c34)CC2C1 (stereo not drawn)

>  <Ki>
0.024 µM

$$$$
>  <molecule>
c1ccc(-c2ccccc2CN2CCN3c4cccc5[nH]cc(c45)CC3C2)cc1 (stereo not drawn)

>  <Ki>
0.45 µM

$$$$
>  <molecule>
c1cc2c3c(c[nH]c3c1)CC1CNCCN21 (stereo not drawn)

>  <Ki>
2.1 µM

$$$$
>  <molecule>
CN1CCN2c3cccc4[nH]cc(c34)CC2C1 (stereo not drawn)

>  <Ki>
0.66 µM

$$$$
>  <molecule>
CC(C)CN1CCN2c3cccc4[nH]cc(c34)CC2C1 (stereo not drawn)

>  <Ki>
0.31 µM

$$$$
>  <molecule>
c1cc2c3c(c[nH]c3c1)CC1CN(CC3CCCCC3)CCN21 (stereo not drawn)

>  <Ki>
0.054 µM

$$$$
>  <molecule>
CCN1CCN2c3cccc4[nH]cc(c34)CC2C1 (stereo not drawn)

>  <Ki>
0.14 µM

$$$$
>  <molecule>
CCCN1CCN2c3cccc4[nH]cc(c34)CC2C1 (stereo not drawn)

>  <Ki>
0.57 µM

$$$$
>  <molecule>
CCCCN1CCN2c3cccc4[nH]cc(c34)CC2C1 (stereo not drawn)

>  <Ki>
0.11 µM

$$$$
>  <molecule>
c1ccc(CN2CCN3c4cccc5[nH]cc(c45)CC3C2)cc1 (stereo not drawn)

>  <Ki>
0.13 µM

$$$$
>  <molecule>
c1ccc(-c2cccc(CN3CCN4c5cccc6[nH]cc(c56)CC4C3)c2)cc1 (stereo not drawn)

>  <Ki>
0.00065 µM

$$$$
